Taken from the supplement of paper PMC7125110.

Listing of entries alongside the reported self-cleavage kobs at 640 uM GlcN6P.
B1: glmS ribozyme (parent)
chain: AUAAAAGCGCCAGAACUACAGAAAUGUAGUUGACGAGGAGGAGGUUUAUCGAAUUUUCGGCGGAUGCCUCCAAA

Variants of: B1
Assay: self-cleavage kobs at 640 uM GlcN6P; higher = faster cleavage; RNA array
Settings: with glucosamine-6-phosphate
This sample holds only a part of the variants without activity.
Just the number please, in s⁻¹, no unit attached.

Record excerpt, results attached:
mutations: C16U U31C
self-cleavage kobs at 640 uM GlcN6P, s⁻¹: 0.00161
//
mutations: A14C C70A
self-cleavage kobs at 640 uM GlcN6P, s⁻¹: 5.59e-05
//
mutations: A14C U47G C70A
self-cleavage kobs at 640 uM GlcN6P, s⁻¹: 0.000114
//
mutations: C8A U25C G37U U69G
self-cleavage kobs at 640 uM GlcN6P, s⁻¹: 0.000488
//
mutations: U56G U69C C70A
self-cleavage kobs at 640 uM GlcN6P, s⁻¹: 8.99e-05

Ask: Can you look up the measured self-cleavage kobs at 640 uM GlcN6P of A53U C58A C68U for me?
Reply: 9.67e-05
